# TESTED_TARGET: human CYP11B2 (Homo sapiens, UniProt P19099)
# Sequence (P19099 25-503): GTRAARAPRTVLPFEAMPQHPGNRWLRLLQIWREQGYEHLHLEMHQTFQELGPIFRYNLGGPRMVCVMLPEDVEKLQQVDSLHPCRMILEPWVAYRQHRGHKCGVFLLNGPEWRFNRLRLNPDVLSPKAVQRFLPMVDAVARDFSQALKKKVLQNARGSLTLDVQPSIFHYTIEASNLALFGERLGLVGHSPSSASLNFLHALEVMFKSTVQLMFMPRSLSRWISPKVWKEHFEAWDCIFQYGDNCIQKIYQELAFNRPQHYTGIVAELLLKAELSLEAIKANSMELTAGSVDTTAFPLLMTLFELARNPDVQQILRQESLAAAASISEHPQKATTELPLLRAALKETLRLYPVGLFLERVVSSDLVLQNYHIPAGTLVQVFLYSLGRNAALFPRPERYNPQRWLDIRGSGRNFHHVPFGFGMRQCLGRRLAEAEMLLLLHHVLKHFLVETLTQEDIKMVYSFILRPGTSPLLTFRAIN
# METHOD_SUMMARY: G-402 cellular enzyme assay, human CYP11B2 (aldosterone release, HTRF)
# SETUP_CONDITIONS: G-402 cells expressing human CYP11B2; 1 μM Deoxycorticosterone
pEC50: −log10 of the molar value.
MEASUREMENT_LABEL: pEC50

[
  {
    "COMPOUND": "CCC(=O)N1CCC[C@H]1COc1cncc(-c2ccc3c(c2)CCC(=O)N3C)c1",
    "TESTED_TARGET": "human CYP11B2 (Homo sapiens, UniProt P19099)",
    "OBSERVED_VALUE": 7.70
  },
  {
    "COMPOUND": "Cc1c(-c2cc3c(cc2F)N(C)C(=O)CC3)cncc1C(C)NC(=O)c1ncccc1Cl (single isomer, unassigned)",
    "TESTED_TARGET": "human CYP11B2 (Homo sapiens, UniProt P19099)",
    "OBSERVED_VALUE": 7.89
  },
  {
    "COMPOUND": "CN1C(=O)CCc2cc(-c3cncc(C4(N)CC4)c3)ccc21",
    "TESTED_TARGET": "human CYP11B2 (Homo sapiens, UniProt P19099)",
    "OBSERVED_VALUE": 7.48
  },
  {
    "COMPOUND": "CN1C(=O)CCc2cc(-c3cncc(CNC(=O)c4nccn4C)c3)ccc21",
    "TESTED_TARGET": "human CYP11B2 (Homo sapiens, UniProt P19099)",
    "OBSERVED_VALUE": 8.05
  },
  {
    "COMPOUND": "CCS(=O)(=O)NCc1cncc(-c2cc(Cl)c3c(c2)CCC(=O)N3C)c1",
    "TESTED_TARGET": "human CYP11B2 (Homo sapiens, UniProt P19099)",
    "OBSERVED_VALUE": 6.79
  },
  {
    "COMPOUND": "O=C1CCc2cc(-c3cncc(CNC(=O)c4ncccc4Cl)c3)ccc2N1",
    "TESTED_TARGET": "human CYP11B2 (Homo sapiens, UniProt P19099)",
    "OBSERVED_VALUE": 6.94
  },
  {
    "COMPOUND": "Cc1cccnc1C(=O)NC1(c2cncc(-c3ccc4c(c3)CCC(=O)N4C)c2)CC1",
    "TESTED_TARGET": "human CYP11B2 (Homo sapiens, UniProt P19099)",
    "OBSERVED_VALUE": 8.05
  },
  {
    "COMPOUND": "CCC(=O)NCc1cncc(-c2ccc3c(c2)CCC(=O)N3C)c1",
    "TESTED_TARGET": "human CYP11B2 (Homo sapiens, UniProt P19099)",
    "OBSERVED_VALUE": 7.36
  }
]

---

# TESTED_TARGET: human CYP11B2 (Homo sapiens)
# Construct: expressed in transfected cells
# METHOD_SUMMARY: G-402 cellular enzyme assay, human CYP11B2 (aldosterone release, HTRF)
# Type: cell-based
# SETUP_CONDITIONS: G-402 cells expressing human CYP11B2; 1 μM Deoxycorticosterone
pEC50: −log10 of the molar value.
Please mark condition met if the recorded pEC50 is equal to or greater than 8, and condition not met if it falls below.

[
  {
    "COMPOUND": "COc1nc(Cl)cnc1C(=O)NCc1cncc(-c2ccc3c(c2)CCC(=O)N3C)c1 [Example 134]",
    "QUALITATIVE_LABEL": "condition met"
  },
  {
    "COMPOUND": "CC(=O)N1CC[C@H](Oc2cncc(-c3ccc4c(c3)CCC(=O)N4C)c2)C1 [Example 254]",
    "QUALITATIVE_LABEL": "condition met"
  },
  {
    "COMPOUND": "Cc1noc(C)c1C(=O)NC(C)c1cncc(-c2ccc3c(c2)CCC(=O)N3C)c1C (single isomer, unassigned) [Example 242]",
    "QUALITATIVE_LABEL": "condition not met"
  },
  {
    "COMPOUND": "Cc1noc(C)c1C(=O)NCc1cncc(-c2cc(Cl)c3c(c2)CCC(=O)N3)c1 [Example 205]",
    "QUALITATIVE_LABEL": "condition not met"
  },
  {
    "COMPOUND": "CCC(NS(=O)(=O)CC)c1cncc(-c2ccc3c(c2)CCC(=O)N3C)c1 (racemic) [Example 180]",
    "QUALITATIVE_LABEL": "condition not met"
  },
  {
    "COMPOUND": "CCS(=O)(=O)NC(C)(C)c1cncc(-c2ccc3c(c2)CCC(=O)N3C)c1 [Example 183]",
    "QUALITATIVE_LABEL": "condition met"
  },
  {
    "COMPOUND": "CCS(=O)(=O)NCc1cncc(-c2ccc3c(n2)CCC(=O)N3C)c1 [Example 32]",
    "QUALITATIVE_LABEL": "condition not met"
  }
]

---

# TESTED_TARGET: human CYP11B1 (Homo sapiens)
# Sequence (P15538 25-503): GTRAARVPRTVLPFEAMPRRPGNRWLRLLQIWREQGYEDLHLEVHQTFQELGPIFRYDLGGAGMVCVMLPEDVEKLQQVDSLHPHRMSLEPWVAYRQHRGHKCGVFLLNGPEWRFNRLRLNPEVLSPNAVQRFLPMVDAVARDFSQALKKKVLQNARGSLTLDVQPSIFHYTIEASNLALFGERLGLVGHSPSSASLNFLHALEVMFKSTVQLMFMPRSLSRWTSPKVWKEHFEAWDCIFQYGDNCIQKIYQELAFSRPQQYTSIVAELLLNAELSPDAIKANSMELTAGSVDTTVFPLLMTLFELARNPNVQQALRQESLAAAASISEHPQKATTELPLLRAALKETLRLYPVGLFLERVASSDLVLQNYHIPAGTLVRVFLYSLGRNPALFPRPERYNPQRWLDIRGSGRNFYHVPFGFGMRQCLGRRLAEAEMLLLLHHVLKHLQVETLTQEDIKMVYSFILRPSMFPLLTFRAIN
# METHOD_SUMMARY: G-402 cellular enzyme assay, human CYP11B1 (cortisol release, HTRF)
# SETUP_CONDITIONS: G-402 cells expressing human CYP11B1; 1 μM Deoxycortisol
Structures can show the parent of a compound that is named as a salt.

[
  {
    "COMPOUND": "Cc1c(-c2cc3c(cc2F)N(C)C(=O)CC3)cncc1C(C)N (single isomer, unassigned) [Example 253, hydrochloride]",
    "EC50": "4.48 µM"
  },
  {
    "COMPOUND": "COc1ccc(S(=O)(=O)NCc2cncc(-c3ccc4c(c3)CCC(=O)N4C)c2)cn1",
    "EC50": "11.1 µM"
  },
  {
    "COMPOUND": "Cc1noc(C)c1C(=O)NCc1cncc(-c2cc3c(cc2F)N(C)C(=O)CC3)c1",
    "EC50": "0.4 µM"
  },
  {
    "COMPOUND": "Cc1noc(C)c1C(=O)NCc1cncc(-c2ccc3c(c2)CCC(=O)N3)c1",
    "EC50": "19.9 µM"
  },
  {
    "COMPOUND": "Cc1noc(C)c1C(=O)NCc1cncc(-c2ccc3c(c2)CCC(=O)N3C)c1Cl",
    "EC50": "0.557 µM"
  },
  {
    "COMPOUND": "CN1C(=O)CCc2cc(-c3cncc(CNS(=O)(=O)c4ccc(Cl)nc4)c3)ccc21",
    "EC50": "6.43 µM"
  },
  {
    "COMPOUND": "COC[C@@H]1CCCN1c1cncc(-c2ccc3c(c2)CCC(=O)N3C)c1",
    "EC50": "0.17 µM"
  },
  {
    "COMPOUND": "CC(N[S@+]([O-])C(C)(C)C)c1cncc(-c2ccc3c(c2)CCC(=O)N3C)c1 (single isomer, unassigned) [Example 57]",
    "EC50": "0.393 µM"
  }
]

---

# TESTED_TARGET: UniProt P15538
# Sequence (P15538 25-503): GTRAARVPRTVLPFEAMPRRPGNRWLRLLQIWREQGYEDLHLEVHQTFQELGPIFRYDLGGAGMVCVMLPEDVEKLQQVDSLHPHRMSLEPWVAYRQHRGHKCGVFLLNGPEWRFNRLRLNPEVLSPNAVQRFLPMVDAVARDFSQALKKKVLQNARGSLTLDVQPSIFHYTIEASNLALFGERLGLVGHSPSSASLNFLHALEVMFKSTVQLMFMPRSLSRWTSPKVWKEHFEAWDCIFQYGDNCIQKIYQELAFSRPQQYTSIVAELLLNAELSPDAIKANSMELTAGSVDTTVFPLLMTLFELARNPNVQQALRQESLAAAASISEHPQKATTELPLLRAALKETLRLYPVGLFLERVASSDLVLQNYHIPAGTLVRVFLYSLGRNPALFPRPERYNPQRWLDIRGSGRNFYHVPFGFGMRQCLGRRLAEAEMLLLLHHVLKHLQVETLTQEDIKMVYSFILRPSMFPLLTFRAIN
# METHOD_SUMMARY: G-402 cellular enzyme assay, human CYP11B1 (cortisol release, HTRF)
# SETUP_CONDITIONS: G-402 cells expressing human CYP11B1; 1 μM Deoxycortisol
pEC50: −log10 of the molar value. Counter-ions that a name gives are not always drawn.
Measured pEC50 of individual entries
MEASUREMENT_LABEL: pEC50

[
  {
    "COMPOUND": "CN1C(=O)CCc2cc(-c3cncc(CNC(=O)c4ncc(C(F)(F)F)cn4)c3)ccc21",
    "MEASUREMENT_LABEL": "pEC50",
    "OBSERVED_VALUE": 5.54
  },
  {
    "COMPOUND": "CCS(=O)(=O)NCc1cncc(-c2ccc3c(c2)CCC(=O)N3C)c1",
    "MEASUREMENT_LABEL": "pEC50",
    "OBSERVED_VALUE": 5.92
  },
  {
    "COMPOUND": "CCS(=O)(=O)NCc1cncc(-c2cc3c4c(c2)CCN4C(=O)CC3)c1",
    "MEASUREMENT_LABEL": "pEC50",
    "OBSERVED_VALUE": 5.65
  },
  {
    "COMPOUND": "CN1C(=O)CCc2cc(-c3cncc(O[C@H]4CCN(C(=O)OC(C)(C)C)C4)c3)ccc21",
    "MEASUREMENT_LABEL": "pEC50",
    "OBSERVED_VALUE": 6.41
  },
  {
    "COMPOUND": "CN1C(=O)CCc2cc(-c3cncc(CN4CCCS4(=O)=O)c3)ccc21",
    "MEASUREMENT_LABEL": "pEC50",
    "OBSERVED_VALUE": 6.77
  },
  {
    "COMPOUND": "Cc1oncc1C(=O)NCc1cncc(-c2cc3c(cc2F)N(C)C(=O)CC3)c1C",
    "MEASUREMENT_LABEL": "pEC50",
    "OBSERVED_VALUE": 6.81
  },
  {
    "COMPOUND": "CN1C(=O)CCc2cc(-c3cncc(OC4CCNCC4)c3)ccc21 [Example 62, hydrochloride]",
    "MEASUREMENT_LABEL": "pEC50",
    "OBSERVED_VALUE": 5.07
  },
  {
    "COMPOUND": "CN1C(=O)CCc2cc(-c3cncc(C4CCN(C(=O)OC(C)(C)C)CC4)c3)ccc21",
    "MEASUREMENT_LABEL": "pEC50",
    "OBSERVED_VALUE": 9.00
  }
]
